# ASSAY: Oral bioavailability in cynomolgus monkey at 7 mg/kg
# Type: ADME, organism-based, Macaca fascicularis
# CONDITION CONTEXT: in vivo
QUANTITY MEASURED: bioavailability (%)
Quick note: give the figure in %, leave out the unit.

If you can, please state the reported bioavailability value of [2H]C([2H])([2H])NC(=O)c1cnc(NC(=O)C2CC2)cc1Nc1cccc(-c2ncc(F)cn2)c1OC .
100

* * *

# ASSAY: Clearance in cynomolgus monkey at 7 mg/kg, po
# Type: ADME, organism-based, Macaca fascicularis
# CONDITION CONTEXT: in vivo
QUANTITY MEASURED: CL/F
Include the unit after the number when you answer.

Entry under review: [2H]C([2H])([2H])NC(=O)c1cnc(NC(=O)C2CC2)cc1Nc1cccc(-c2ncc(F)cn2)c1OC . Reported CL/F?
2.3 mL/min/kg

* * *

# ASSAY: AUC (0 to 24 hrs) in rat at 10 mg/kg, po
# Type: ADME, organism-based
# Parameters: time < 24 hr, route oral, dose 10 mg/kg
# CONDITION CONTEXT: in vivo
QUANTITY MEASURED: AUC(0-t) at 24 h (µM·h)
Write the value in µM·h as a bare number.

AUC(0-t) at 24 h for [2H]C([2H])([2H])NC(=O)c1cnc(NC(=O)C2CC2)cc1Nc1cccc(-c2ncc(F)cn2)c1OC ?
77

* * *

# Vdss per entry
# ASSAY: Volume of distribution at steady state in mouse at 10 mg/kg, po
# Format: ADME, organism-based
# CONDITION CONTEXT: in vivo
Field format: number, assumed L/kg, no unit text.

CHEMICAL SMILES	QUANTITY MEASURED	VALUE
[2H]C([2H])([2H])NC(=O)c1nnc(NC(=O)C2CC2)cc1Nc1cccc(-c2cnc(C(=O)N(C)C)cn2)c1OC	Vdss	1.5
[2H]C([2H])([2H])NC(=O)c1nnc(NC(=O)C2CC2)cc1Nc1cccc(-c2ncccn2)c1OC	Vdss	2.3
[2H]C([2H])([2H])NC(=O)c1nnc(NC(=O)C2CC2)cc1Nc1cccc(-c2cnc(C(C)(C)O)cn2)c1OC	Vdss	3.4

Would you kindly look at the next entry?
Report Vdss for [2H]C([2H])([2H])NC(=O)c1cnc(NC(=O)C2CC2)cc1Nc1cccc(-c2ncc(F)cn2)c1OC please.
1.1

* * *

# ASSAY: Stability in human liver microsomes assessed as parent compound remaining after 10 mins
# Format: ADME, Microsome
# CONDITION CONTEXT: read-out: Stabilty
In this section we review reported remaining at 10 min values for a set of compounds.
Entry rule: numbers only, all in %.

CHEMICAL SMILES	VALUE
[2H]C([2H])([2H])NC(=O)c1nnc(NC(=O)C2CC2)cc1Nc1cccc(-c2ncn(C)n2)c1OC	98
[2H]C([2H])([2H])NC(=O)c1nnc(NC(=O)C2CC2)cc1Nc1cccc(-c2cccnn2)c1OC	60
[2H]C([2H])([2H])NC(=O)c1nnc(NC(=O)C2CC2)cc1Nc1cccc(-c2ccncn2)c1OC	48
[2H]C([2H])([2H])NC(=O)c1nnc(NC(=O)C2CC2)cc1Nc1cccc(-c2ncccn2)c1OC	100

remaining at 10 min lookup needed for [2H]C([2H])([2H])NC(=O)c1nnc(NC(=O)C2CC2)cc1Nc1cccc(-c2cnccn2)c1OC , thanks.
58

Fill blank: measured remaining at 10 min of the compound [2H]C([2H])([2H])NC(=O)c1nnc(NC(=O)C2CC2)cc1Nc1cccc(-c2cnc(C(C)(C)O)cn2)c1OC is ____.
95

Quick one: remaining at 10 min of [2H]C([2H])([2H])NC(=O)c1nnc(NC(=O)C2CC2)cc1Nc1cccc(-c2ccccn2)c1OC ?
79

* * *

# ASSAY: Half life in monkey liver microsomes
# Type: ADME, Macaca mulatta, Microsome
# CONDITION CONTEXT: rhesus monkey
QUANTITY MEASURED: half-life

Please give the measured half-life for this compound: [2H]C([2H])([2H])NC(=O)c1cnc(NC(=O)C2CC2)cc1Nc1cccc(-c2ncc(F)cn2)c1OC [BMS-986202]
> 2 h

* * *

# ASSAY: Cmax in dog at 10 mg/kg, po
# Format: ADME, organism-based, Canis lupus familiaris
# Design: route oral, dose 10 mg/kg
# CONDITION CONTEXT: in vivo
QUANTITY MEASURED: Cmax
Please report the result as a number followed by the unit.

Request the reported Cmax associated with [2H]C([2H])([2H])NC(=O)c1cnc(NC(=O)C2CC2)cc1Nc1cccc(-c2ncc(F)cn2)c1OC
14 µM

* * *

# ASSAY: Stability in mouse liver microsomes assessed as parent compound remaining after 10 mins
# Format: ADME, Microsome
# CONDITION CONTEXT: read-out: Stabilty
This listing pairs compounds with measured remaining at 10 min.
All answers are understood in %, so give the number only.

Look over these answered cases.
CHEMICAL SMILES	MEASURE UNIT	remaining at 10 min
[2H]C([2H])([2H])NC(=O)c1nnc(NC(=O)C2CC2)cc1Nc1cccc(-c2cnccn2)c1OC	%	1
[2H]C([2H])([2H])NC(=O)c1nnc(NC(=O)C2CC2)cc1Nc1cccc(-c2ncn(C)n2)c1OC	%	89
[2H]C([2H])([2H])NC(=O)c1nnc(NC(=O)C2CC2)cc1Nc1cccc(-c2cnc(C(C)(C)O)cn2)c1OC	%	99

Give the measured remaining at 10 min of [2H]C([2H])([2H])NC(=O)c1nnc(NC(=O)C2CC2)cc1Nc1cccc(-c2ccncn2)c1OC .
3

* * *

# ASSAY: AUC (0 to 24 hrs) in dog at 10 mg/kg, po
# Assay type: ADME, organism-based, Canis lupus familiaris
# Design: time < 24 hr, route oral, dose 10 mg/kg
# CONDITION CONTEXT: in vivo
QUANTITY MEASURED: AUC(0-t) at 24 h (µM·h)
Answer in µM·h, number only, no unit symbol.

What value of AUC(0-t) at 24 h has been recorded for this entry: [2H]C([2H])([2H])NC(=O)c1cnc(NC(=O)C2CC2)cc1Nc1cccc(-c2ncc(F)cn2)c1OC
126

* * *

Each entry below lists one item and its recorded remaining at 10 min value.
# ASSAY: Stability in mouse liver microsomes assessed as parent compound remaining after 10 mins
# Format: ADME, Microsome
# CONDITION CONTEXT: read-out: Stabilty
The reply should be a number in %, with the unit left off.

CHEMICAL SMILES	MEASURE UNIT	remaining at 10 min
[2H]C([2H])([2H])NC(=O)c1nnc(NC(=O)C2CC2)cc1Nc1cccc(-c2ccccn2)c1OC	%	42

Recorded remaining at 10 min for [2H]C([2H])([2H])NC(=O)c1nnc(NC(=O)C2CC2)cc1Nc1cccc(-c2ncccn2)c1OC , please?
78

Which measured remaining at 10 min value corresponds to [2H]C([2H])([2H])NC(=O)c1nnc(NC(=O)C2CC2)cc1Nc1cccc(-c2cccnn2)c1OC ?
0

* * *

Reported bioavailability values are given for each entry in this list.
# ASSAY: Oral bioavailability in mouse at 10 mg/kg
# Assay type: ADME, organism-based
# CONDITION CONTEXT: in vivo
Numeric answer only, unit % assumed.

Solved entries (count: 3):
COMPOUND	MEASURE UNIT	bioavailability
[2H]C([2H])([2H])NC(=O)c1nnc(NC(=O)C2CC2)cc1Nc1cccc(-c2cnc(C(=O)N(C)C)cn2)c1OC	%	43
[2H]C([2H])([2H])NC(=O)c1nnc(NC(=O)C2CC2)cc1Nc1cccc(-c2cnc(C(C)(C)O)cn2)c1OC	%	41
[2H]C([2H])([2H])NC(=O)c1nnc(NC(=O)C2CC2)cc1Nc1cccc(-c2ncccn2)c1OC	%	31

Now consider the entry below.
Fill in: bioavailability of [2H]C([2H])([2H])NC(=O)c1cnc(NC(=O)C2CC2)cc1Nc1cccc(-c2ncc(F)cn2)c1OC [BMS-986202] is ___
62
